# Target or system: human GPR139 receptor (Homo sapiens (Human))
# Sequence (Q6DWJ6 whole entry): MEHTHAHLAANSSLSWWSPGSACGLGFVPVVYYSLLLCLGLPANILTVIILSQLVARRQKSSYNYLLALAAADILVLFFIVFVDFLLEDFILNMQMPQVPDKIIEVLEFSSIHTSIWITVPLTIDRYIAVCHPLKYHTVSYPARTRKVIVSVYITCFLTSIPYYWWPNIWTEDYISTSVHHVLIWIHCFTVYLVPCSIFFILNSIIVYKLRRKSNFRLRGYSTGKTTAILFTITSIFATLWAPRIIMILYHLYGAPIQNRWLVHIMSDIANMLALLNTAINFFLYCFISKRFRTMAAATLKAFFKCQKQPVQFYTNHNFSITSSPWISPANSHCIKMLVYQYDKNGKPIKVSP
# Test description: Activation of Calcium Signaling of GPR139 In Vitro Assay;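 further: receptor expression induced with doxycycline, calcium fluorescence read continuously for one minute after compound addition, EC50 taken from a four-parameter logistic fit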
# Format: cell-based
# Test settings: stably transfected CHO-TRex cells, Calcium 5 dye, FLIPR Tetra
Parameter measured: EC50

CC[C@H](NC(=O)Cn1nnc2ccccc2c1=O)c1ccc(OC(F)(F)F)cc1	50 nM
COc1cccc2c(=O)n(CC(=O)N[C@@H](C)c3ccc(OC(F)(F)F)cc3)nnc12	25 nM
Cc1ccc([C@H](C)NC(=O)Cn2nnc3cccc(C)c3c2=O)cc1	6 nM
Cc1ccc([C@H](C)NC(=O)Cn2nnc3cccc(F)c3c2=O)cc1	16 nM
C[C@H](NC(=O)Cn1nnc2ccc(F)cc2c1=O)c1ccc(OC(F)(F)F)cc1	38 nM
COc1ccc([C@H](C)NC(=O)Cn2nnc3c(C)cccc3c2=O)cc1	8 nM
C[C@H](NC(=O)Cn1nnc2ccc(F)cc2c1=O)c1ccc(OC(F)F)cc1	10 nM
Cc1ccc([C@H](C)NC(=O)Cn2nnc3c(Cl)cc(Cl)cc3c2=O)cc1	16 nM
COc1ccc2c(=O)n(CC(=O)N[C@@H](C)c3ccc(OC(F)(F)F)cc3)nnc2c1	37 nM
COc1ccc([C@H](C)NC(=O)Cn2nnc3cccc(C)c3c2=O)cc1	9 nM
COc1ccc([C@H](C)NC(=O)Cn2nnc3ccc(C)cc3c2=O)cc1	19 nM

Measured values drawn from patent US9556130B2 for this set.
